molecular target: CYP2C9 (Homo sapiens, UniProt P11712); type: in vitro ADME; conditions: CYP2C9 Supersomes (recombinant CYP2C9), without hFABP1, pH 7.4, Km,apparent for 4'-OH-diclofenac formation, −FABP1, nominal diclofenac concentrations, absence of FABP1, 1 nM CYP2C9 Supersomes
Sequence (P11712 whole entry): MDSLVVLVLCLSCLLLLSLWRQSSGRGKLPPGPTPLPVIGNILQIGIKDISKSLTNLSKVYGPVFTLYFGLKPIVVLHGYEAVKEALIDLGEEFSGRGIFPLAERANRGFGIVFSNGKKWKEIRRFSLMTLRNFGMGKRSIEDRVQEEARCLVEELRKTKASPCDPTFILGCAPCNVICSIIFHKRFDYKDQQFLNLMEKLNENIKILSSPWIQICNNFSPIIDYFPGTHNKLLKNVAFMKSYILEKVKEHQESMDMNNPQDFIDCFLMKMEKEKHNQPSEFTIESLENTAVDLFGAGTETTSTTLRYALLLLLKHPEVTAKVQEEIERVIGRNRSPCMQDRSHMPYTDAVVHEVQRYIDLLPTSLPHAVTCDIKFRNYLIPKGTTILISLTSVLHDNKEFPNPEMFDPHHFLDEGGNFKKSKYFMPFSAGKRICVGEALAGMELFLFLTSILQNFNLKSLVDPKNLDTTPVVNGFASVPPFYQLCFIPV
MEASURED QUANTITY: Km at 10 min (µM)
Numbers only, in µM.

Recorded Km at 10 min (compound O=C(O)Cc1ccccc1Nc1c(Cl)cccc1Cl ): 1.4

====

biological target: human FABP1 (hFABP1) (Homo sapiens, UniProt P07148)
Sequence (P07148 whole entry): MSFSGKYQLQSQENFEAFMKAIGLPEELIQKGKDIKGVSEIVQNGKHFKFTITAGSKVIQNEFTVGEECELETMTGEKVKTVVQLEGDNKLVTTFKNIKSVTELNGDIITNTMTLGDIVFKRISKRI
MEASURED QUANTITY: Kd

Recorded Kd (molecule CC(C(=O)O)c1ccc(-c2ccccc2)c(F)c1 (stereo not shown) [flurbiprofen] ): 2 to 10 µM
